// values below are reported CC50
assay: Cytotoxicity against african green monkey Vero 76 cells after 48 to 96 hrs by crystal violet staining; format: cell-based; conditions: chlorocebus sabaeus

{"columns": ["smilesEntry", "CC50"],
 "data": [
  ["O=c1[nH]c2c(Cl)c3ncccc3cc2nc1-c1ccccc1", "> 100 µM"],
  ["COc1ccccc1-c1nc2cc3cccnc3cc2[nH]1", "75 µM"],
  ["Oc1ccnc2c(Cl)c3[nH]c(-c4ccccc4)nc3cc12", "> 100 µM"]
]}

Q: # input molecule: `O=[N+]([O-])c1ccc(-c2nc3cc4cccnc4c(Cl)c3[nH]2)cc1` ; wanted: its CC50
Result: > 100 µM

Q: # input molecule: `Clc1ccc(-c2nc3cc4cccnc4cc3[nH]2)cc1` ; wanted: its CC50
Result: > 100 µM
